Provenance of the data: PubChem BioAssay (NCI)

test system: A498 renal; assay: NCI tumour cell line growth inhibition, 48 h
reported.property: TGI (µM)
Please respond with the number in µM and leave the unit unwritten.

Observed TGI on A498 renal for COc1ccc(N2C(=O)C(=O)N(c3ccc(N=Nc4ccccc4)cc3)C2=S)cc1 , please.
52.3

TGI of COc1ccc2c(c1)C(C)Cc1c(ncnc1-n1cnc3ccccc31)N2C (stereo not drawn) on A498 renal?
10.2

---

Assignment: determine reported TGI for the given molecules.
test system: SK-OV-3 ovarian; assay: NCI tumour cell line growth inhibition, 48 h

Quick one: TGI for CCCn1cnc2c(SCc3ccc(Cl)cc3)nc(N)nc21 ?
> 100 µM

Give its TGI value. Item: Cc1ccc2[c](c1)[Sn]([c]1ccccc1)([c]1ccccc1)[c]1cc(C)ccc1N2C
> 100 µM

TGI lookup needed for S=C1NCCN1C(=S)Nc1ccccc1 , thanks.
> 100 µM

What does the record list as TGI for COc1cc(/C=N\O[Si](C)(C)C(C)(C)C)ccc1O[Si](C)(C)C(C)(C)C ?
> 100 µM

Record request: TGI value, item c1ccc2c(c1)OCCOCCOc1ccccc1OCCO2
> 100 µM

Need TGI of COc1cc2c3c(n(CCCN(CCO)CCO)c(=O)c2cc1OC)-c1cc2c(cc1C3=O)OCO2 , thanks.
34.9 µM

Sample O=C(NCCN1CCOCC1)c1ccc(I)cc1 — what was its TGI?
> 100 µM

Can you share its TGI? I mean this molecule: CCOC(=O)CCC1(CCC(=O)OCC)CCCCCCCCC(CCC(=O)OCC)(CCC(=O)OCC)C(=O)C1=O
> 100 µM

Entry under review: CCCCC1C=Cn2c(=O)oc3c(OC(C)C)c(C)c(O)c1c32 (stereo not drawn) . Reported TGI?
13.3 µM

What does the data say about its TGI? Entry: COC(=O)N[C@H](C(=O)NC(OCc1ccccc1)C1COC(C)(C)O1)C(C)O[Si](C)(C)C(C)(C)C (stereo partly drawn)
> 100 µM

Fill in the blank: the reported TGI of O=Cc1ccc(-c2ccc(-c3ccc(CO)s3)o2)s1 is ____.
78.8 µM

Which measured TGI value corresponds to CNCCn1c(=O)c2cc(OC)c(OC)cc2c2cnc3cc4c(cc3c21)OCO4 ?
1.82 µM

Can you look up the measured TGI of Cc1cc(NCCCCNc2ccnc3cc(Cl)ccc23)nc(Nc2ccc(C(=O)N3CCCCC3)cc2)n1 for me?
6.13 µM

Tell me the measured TGI of COc1cc(-c2nnc3n2NC=C(C(=O)O)S3)cc(OC)c1OC , please.
> 100 µM

Form field: reported TGI of CCc1nc(Cl)c(Cl)c(Cl)n1
> 100 µM

Could you share which TGI value was measured for CC(=O)OCCOCNC(=S)N/N=C/c1ccc([N+](=O)[O-])s1 ?
> 100 µM

Which TGI value is on record for COc1ccc(-c2cc(-c3ccc(Nc4ccnc5cc(Cl)ccc45)cc3)nc(N3CCOCC3)n2)cc1 ?
> 100 µM

Reported TGI, molecule C=C1CCCCCCCCC/C=C/1SCCCSC : ____
> 100 µM

---

test system: HS 578T breast; assay: NCI tumour cell line growth inhibition, 48 h
Param threshold (30 µM) applies to TGI; output 1 when value >= threshold, -1 when value < threshold.

Form field: TGI at least 30 µM? Entry: C/C(=N\NC(=S)N1CCCC1)c1nc2ncccc2[nH]1
1

State whether the measured TGI reaches 30 µM, counting equality as reaching it, for CCOC(=O)C1=C(N)Oc2c(sc3c(C)cccc23)C1c1ccc(F)cc1 (stereo not given)
-1

Please check the record O=C(N/N=C/c1ccc(O)cc1O)c1cccnc1 and state if its TGI is at or above 30 µM.
1

Has O=C(CCN1CCOCC1)Nc1cccc(-n2cc(-c3ccncc3)c(-c3ccc(Cl)c(O)c3)n2)c1 a recorded TGI greater than or equal to 30 µM?
-1

Tell me whether TGI is at least 30 µM here: O=C1c2ccccc2C(=O)c2c(NCCN=Cc3ccccc3O)cccc21
-1

Is it the case that CC(=O)O[C@@]12CO[C@@H]1CC(O)[C@@]1(C)C(=O)[C@H](O)C3=C(C)C(O)C[C@@](O)(C(OC(=O)c4ccccc4)C12)C3(C)C (stereo not given in full) has TGI reaching or exceeding 30 µM?
-1

Is the recorded value of TGI equal to or greater than 30 µM for this compound? CC(=O)Nc1c(C(=N)C#N)ncn1CCO
1

# bool: TGI of O=C(NCCN1CCOCC1)c1ccc(I)cc1 >= 30 µM
1

Does Oc1ccc(N=Nc2nccs2)c(O)c1 have a reported TGI of at least 30 µM?
1

# check: TGI of Cc1cn2c(/C=N/N=C(N)N)c(-c3ccc(Cl)c([N+](=O)[O-])c3)nc2s1 is greater than or equal to 30 µM
1
